Test system: HIV/VSV-G pseudotype virus
Experiment: organism not typed
Format: cell-based, vesicular stomatitis virus
Conditions: read-out: % inhibition @ 25 μM VSV
propertyMeasured: inhibition at 25 µM (%)
Give your result in % as a bare value.

(Q) // inhibition at 25 µM lookup, key: COc1ccc(S(=O)(=O)N(CC(=O)Nc2cccc3ccccc23)c2ccc(Cl)cc2)cc1 [Compound 12308_B02]
(A) 23

(Q) // same read-out, input: Cc1ccc(N(CC(=O)Nc2ccccc2C(C)C)S(C)(=O)=O)cc1 [Compound 12402_E03]
(A) 22

(Q) // same read-out, input: COc1ccc(N(CC(=O)Nc2ccccc2-c2ccccc2)S(=O)(=O)c2ccc(F)cc2)cc1 [Compound 12838_B07]
(A) 77

(Q) // same read-out, input: COc1ccc(Cl)cc1N(CC(=O)Nc1ccc(F)cc1F)S(=O)(=O)c1ccc(C)cc1 [Compound 12096_A08]
(A) 42

(Q) // same read-out, input: Cc1cccc(NC(=O)CN(c2cccc(Cl)c2Cl)S(C)(=O)=O)c1 [Compound 11998_D06]
(A) 0

(Q) // same read-out, input: CS(=O)(=O)N(CC(=O)Nc1ccccc1F)c1cc(C(F)(F)F)ccc1Cl [Compound 12020_E02]
(A) 68

(Q) // same read-out, input: COc1cccc(N(CC(=O)Nc2ccc(CSc3ccccc3)cc2)S(C)(=O)=O)c1 [Compound 11997_F05]
(A) 51

(Q) // same read-out, input: COc1ccc(N(CC(=O)Nc2ccccc2SC)S(=O)(=O)c2ccc(F)cc2)cc1 [Compound 12794_H03]
(A) 77

====

Record form. Attribute: inhibition at 25 µM. Fill in for each entry.
Tested on: HIV/VSV-G pseudotype virus
Test: organism not typed
Format: cell-based, vesicular stomatitis virus
Conditions: read-out: % inhibition @ 25 μM VSV
Give your result in % as a bare value.

(Q) // inhibition at 25 µM lookup, key: COc1ccc(S(=O)(=O)N(CC(=O)Nc2ccc(F)c(Cl)c2)c2ccccc2)cc1 [Compound 12078_D04]
(A) 60

(Q) // same read-out, input: CCc1ccc(N(CC(=O)Nc2ccc(Oc3ccccc3)cc2)S(C)(=O)=O)cc1 [Compound 12066_B08]
(A) 24

(Q) // same read-out, input: COC(=O)c1ccccc1NC(=O)CN(c1ccc(C)cc1)S(=O)(=O)c1ccc(OC)cc1 [Compound 11978_G07]
(A) 29

(Q) // same read-out, input: COc1ccc(Cl)cc1NC(=O)CN(c1cccc(Cl)c1Cl)S(C)(=O)=O [Compound 12021_B02]
(A) 70

(Q) // same read-out, input: COc1ccc(S(=O)(=O)N(CC(=O)Nc2cccc3ccccc23)c2ccc(C)cc2)cc1 [Compound 12305_B04]
(A) 0

(Q) // same read-out, input: COc1ccc(N(CC(=O)Nc2ccccc2F)S(=O)(=O)c2ccccc2)cc1Cl [Compound 12441_B08]
(A) 7

(Q) // same read-out, input: Cc1c(Cl)cccc1NC(=O)CN(c1ccc(I)cc1)S(C)(=O)=O [Compound 12076_B09]
(A) 21

(Q) // same read-out, input: COC(=O)c1ccccc1NC(=O)CN(c1ccc(C)cc1)S(=O)(=O)c1ccccc1 [Compound 30636_C03]
(A) 42

====

Record form. Attribute: CC50. Fill in for each entry.
Tested on: cell viability (endogenous cellular GAPDH)
Test: Cell viability, AlphaScreen SureFire GAPDH assay
Conditions: cytotoxicity
Give your result in µM as a bare value.

(Q) // CC50 lookup, key: COc1cccc(N(CC(=O)Nc2cc(Cl)cc(Cl)c2)S(=O)(=O)c2ccccc2)c1 [Compound 7]
(A) 31.5

(Q) // same read-out, input: O=C(CN(c1ccc(Cl)c(Cl)c1)S(=O)(=O)c1ccccc1)Nc1ccccc1 [Compound 9]
(A) 42

(Q) // same read-out, input: O=C(CN(c1cccc(Cl)c1)S(=O)(=O)c1ccccc1)Nc1ccccc1Cl [Compound 19]
(A) 90.3

(Q) // same read-out, input: O=C(CN(c1ccc(Cl)cc1Cl)S(=O)(=O)c1ccccc1)Nc1ccc(F)cc1 [Compound 10]
(A) 50.5

====

Test system: HIV/VSV-G pseudotype virus
Assay: organism not typed
Type: cell-based, vesicular stomatitis virus
Settings: read-out: % inhibition @ 25 μM VSV
Label true when inhibition at 25 µM is at or above 2%; anything below gets false.

(Q) State whether the measured inhibition at 25 µM reaches 2%, counting equality as reaching it, for CCOc1ccc(N(C(C)C(=O)Nc2cccc(C(F)(F)F)c2)S(C)(=O)=O)cc1 (centres unmarked)
(A) true

(Q) // same read-out, input: `Cc1ccc(S(=O)(=O)N(CC(=O)Nc2ccccc2C(F)(F)F)c2ccc(F)cc2)cc1`
(A) true

(Q) // same read-out, input: `COc1ccc(S(=O)(=O)N(CC(=O)Nc2ccccc2SC)c2ccc(Cl)cc2)cc1`
(A) true

(Q) // same read-out, input: `O=C(CN(c1ccccc1F)S(=O)(=O)c1ccccc1)Nc1cccc(C(F)(F)F)c1`
(A) true

(Q) // same read-out, input: `COc1ccc(S(=O)(=O)N(CC(=O)Nc2ccc(F)cc2F)c2ccc(Cl)cc2)cc1`
(A) false

(Q) // same read-out, input: `CCc1ccccc1N(CC(=O)Nc1cccc(F)c1)S(C)(=O)=O`
(A) false

(Q) // same read-out, input: `COc1ccccc1NC(=O)CN(c1ccc(Cl)cc1C)S(C)(=O)=O`
(A) true

====

Test system: cell viability (endogenous cellular GAPDH)
Assay: Cell viability, AlphaScreen SureFire GAPDH assay
Conditions: cytotoxicity
propertyMeasured: CC50

(Q) // CC50 lookup, key: COc1ccccc1N(CC(=O)Nc1cccc(C)c1C)S(=O)(=O)c1ccccc1 [Compound 14]
(A) > 100 µM

(Q) // same read-out, input: COc1ccc(NC(=O)CN(c2ccc(Cl)cc2)S(=O)(=O)c2ccc(C)cc2)cc1 [Compound 16]
(A) > 100 µM

(Q) // same read-out, input: COc1cccc(NC(=O)CN(c2ccc(Cl)cc2C)S(=O)(=O)c2ccc(C)cc2)c1 [Compound 15]
(A) 43.4 µM

(Q) // same read-out, input: COc1ccc(OC)c(NC(=O)CN(c2ccccc2Cl)S(=O)(=O)c2ccc(C)cc2)c1 [Compound 21]
(A) > 100 µM

(Q) // same read-out, input: COc1ccc(OC)c(N(CC(=O)Nc2ccc(Cl)cc2)S(=O)(=O)c2ccc(C)cc2)c1 [Compound 8]
(A) > 100 µM

(Q) // same read-out, input: O=C(CN(c1ccc(Cl)cc1Cl)S(=O)(=O)c1ccccc1)Nc1ccccc1F [Compound 6]
(A) > 25 µM

(Q) // same read-out, input: COc1ccc(N(CC(=O)Nc2ccc(F)cc2)S(=O)(=O)c2ccccc2)cc1 [Compound 12]
(A) > 100 µM

(Q) // same read-out, input: Cc1cccc(C)c1NC(=O)CN(c1ccccc1Cl)S(=O)(=O)c1ccccc1 [Compound 20]
(A) > 100 µM

Attribution: patent US9212134B2
